# Tested on: MOLT-4 leukemia
# assay.procedure: NCI tumour cell line growth inhibition, 48 h
Reported GI50 values for the following compounds.
measured.endpoint: GI50

INSERT INTO results (compound, experimental_value) VALUES
  ('COC1=CC(=O)c2nc(Cl)ccc2C1=O', '0.807 µM'),
  ('Nc1ncnc2c1ccn2[C@@H]1O[C@H]([C@H](O)c2ccc(Cl)c(F)c2)[C@@H](O)[C@H]1O', '> 100 µM'),
  ('CN1CCN(Cc2ccc(NC(=O)c3cncc(C#Cc4cnc(N)c5cnccc45)c3)cc2C(F)(F)F)CC1', '0.172 µM'),
  ('CN(C)CCOC(=O)Nc1nc2ccc(Sc3ccccc3)cc2[nH]1', '5.32 µM'),
  ('CCCN1CCC(c2ccc(Nc3nc(Nc4cc(F)ccc4C(N)=O)c4cc[nH]c4n3)c(OC)c2)CC1', '4.4 µM'),
  ('C#Cc1cccc(NC(=O)c2ccc(NC(=O)CCl)cc2)c1', '12.4 µM'),
  ('COc1cnc2c(c1)C(=O)c1c-2n(CCCN2CCNCC2)c(=O)c2cc([N+](=O)[O-])ccc12', '0.0365 µM'),
  ('C/C(=N/N=C(N)N)c1ccc(NC(=O)Nc2ccc(/C(C)=N/N=C(N)N)cc2)cc1', '25.7 µM'),
  ('COc1cccc2c1C(=O)c1c(O)c3c(c(O)c1C2=O)C[C@@](O)(C(=O)CO)CC3OC1CC(NCCCC(OC(C)=O)OC(C)=O)C(O)C(C)O1 (some centres not stated)', '0.000123 µM'),
  ('COc1ccc(OC)c(/C=C/c2nc(SCc3ccccc3)n(-c3ccc(Cl)cc3)n2)c1', '6.51 µM'),
  ('O=C(/C=C/OC(=O)c1cccc(Cl)c1)c1ccc(Cl)cc1', '31.8 µM'),
  ('O=[N+]([O-])c1ccc(Sc2ccncn2)c([N+](=O)[O-])c1', '0.939 µM');
